B1: glmS ribozyme (parent)
chain: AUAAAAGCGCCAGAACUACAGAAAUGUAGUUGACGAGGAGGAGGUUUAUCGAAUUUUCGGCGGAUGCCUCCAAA

variants of: B1; assay: self-cleavage kobs at 10000 uM GlcN6P; higher = faster cleavage; RNA array; settings: with glucosamine-6-phosphate
Fewer inactive variants are shown than the library holds.
Could you label it 1.0 if measured self-cleavage kobs at 10000 uM GlcN6P is 0.0003 s⁻¹ or higher, and 0.0 otherwise?

Reference set, count: 2
Query string: Could you tell me if the measured self-cleavage kobs at 10000 uM GlcN6P of G29U G38A A42G U47G C71U reaches 0.0003 s⁻¹ or more?
Result string: 0.0

Query string: Textbook exercise: given the entry C34G C50U , state whether its self-cleavage kobs at 10000 uM GlcN6P is greater than or equal to 0.0003 s⁻¹.
Result string: 0.0

More entries:
Query string: Quick check, self-cleavage kobs at 10000 uM GlcN6P >= 0.0003 s⁻¹? G37A G66A
Result string: 1.0

Query string: Determine whether measured self-cleavage kobs at 10000 uM GlcN6P meets or exceeds 0.0003 s⁻¹ for A14C G60C
Result string: 0.0

Query string: Is the recorded value of self-cleavage kobs at 10000 uM GlcN6P equal to or greater than 0.0003 s⁻¹ for this variant? C67A C70U
Result string: 1.0

Query string: Reported self-cleavage kobs at 10000 uM GlcN6P reaches at least 0.0003 s⁻¹ for C50U A53U G59C U65A ?
Result string: 0.0

Query string: Quick check: does C16U A39G A48C have self-cleavage kobs at 10000 uM GlcN6P greater than or equal to 0.0003 s⁻¹?
Result string: 1.0

Query string: self-cleavage kobs at 10000 uM GlcN6P >= 0.0003 s⁻¹ for A53U U56G ?
Result string: 1.0
